Reference for the values: ChEMBL document CHEMBL1806394

Let's look at some molecules and their measured MIC80.
# Test system: Candida albicans
# procedure-details: Antifungal activity against Candida albicans Y0109 by micro-broth dilution method
# Type: functional
measurement-kind: MIC80

>  <molecule>
CC(C)(C)c1ccc(C(=O)Nc2ccc(-n3cnn(CC(O)(Cn4cncn4)c4ccc(F)cc4F)c3=O)cc2)cc1 (single isomer, unassigned)

>  <result>
1 µg/mL

$$$$
>  <molecule>
O=C(/C=C/c1ccccc1F)Nc1ccc(-n2cnn(CC(O)(Cn3cncn3)c3ccc(F)cc3F)c2=O)cc1 (single isomer, unassigned)

>  <result>
1 µg/mL

$$$$
>  <molecule>
CCCc1ccc(C(=O)Nc2ccc(-n3cnn(CC(O)(Cn4cncn4)c4ccc(F)cc4F)c3=O)cc2)cc1 (single isomer, unassigned)

>  <result>
1 µg/mL

$$$$
